# Target Of Assay: UniProt P23280
# Sequence (P23280 18-308): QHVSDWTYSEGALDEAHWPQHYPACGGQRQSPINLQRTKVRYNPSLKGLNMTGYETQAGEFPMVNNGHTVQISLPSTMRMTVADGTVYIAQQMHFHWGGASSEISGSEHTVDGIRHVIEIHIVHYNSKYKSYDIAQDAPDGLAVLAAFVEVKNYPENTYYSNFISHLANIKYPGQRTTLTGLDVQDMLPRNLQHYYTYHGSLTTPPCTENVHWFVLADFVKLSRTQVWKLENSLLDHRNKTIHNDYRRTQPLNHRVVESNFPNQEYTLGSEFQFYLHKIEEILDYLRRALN
Assay Endpoint: Ki

>>> observed("Cc1ccc(C(C)C)c(O)c1")
"> 100 µM"

* * *

PgiCAβ (Porphyromonas gingivalis, UniProt B2RL07) measurements of Ki, listed per entry.
Sequence (B2RL07 19-242): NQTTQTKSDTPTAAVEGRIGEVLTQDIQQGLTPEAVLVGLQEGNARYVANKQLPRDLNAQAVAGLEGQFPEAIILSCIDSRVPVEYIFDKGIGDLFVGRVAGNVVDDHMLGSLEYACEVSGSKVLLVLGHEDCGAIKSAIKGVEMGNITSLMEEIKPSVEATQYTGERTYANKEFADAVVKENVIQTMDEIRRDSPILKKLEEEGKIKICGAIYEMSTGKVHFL
Assay Endpoint: Ki (µM)

>>> observed("Cc1ccc(C(C)C)cc1O [carvacrol]")
28
>>> observed("Cc1ccc(C(C)C)c(O)c1 [thymol]")
48.9

* * *

# Target Of Assay: (UniProt Q9ZK30)
# Sequence (Q9ZK30 19-247 limits assumed): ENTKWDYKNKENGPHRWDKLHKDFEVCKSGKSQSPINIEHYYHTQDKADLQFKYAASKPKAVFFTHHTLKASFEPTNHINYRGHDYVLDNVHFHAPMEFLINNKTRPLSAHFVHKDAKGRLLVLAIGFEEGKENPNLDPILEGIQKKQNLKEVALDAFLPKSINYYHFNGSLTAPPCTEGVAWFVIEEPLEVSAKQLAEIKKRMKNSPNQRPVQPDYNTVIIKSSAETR
pKi: −log10 of the molar value.
Assay Endpoint: pKi

>>> observed("Cc1ccc(C(C)C)cc1O [carvacrol]")
5.08

* * *

# Target Of Assay: MgCA (Malassezia globosa, UniProt A8Q1N3)
# Sequence (A8Q1N3 1-241): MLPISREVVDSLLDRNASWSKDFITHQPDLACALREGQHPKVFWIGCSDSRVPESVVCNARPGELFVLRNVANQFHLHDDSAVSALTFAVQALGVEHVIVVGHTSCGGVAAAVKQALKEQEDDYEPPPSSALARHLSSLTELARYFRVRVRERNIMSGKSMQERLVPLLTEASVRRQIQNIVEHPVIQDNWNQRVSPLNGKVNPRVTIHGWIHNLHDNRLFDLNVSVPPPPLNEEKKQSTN
# Procedure Summary: stopped-flow CO2 hydrase assay, MgCA
# Type: biochemical
pKi: −log10 of the molar value.
Assay Endpoint: pKi

>>> observed("Cc1ccc(C(C)C)cc1O")
5.17
